Assay: folding stability dG unfold (combined trypsin and chymotrypsin); higher = more stable
For each of the sequences below, state its folding stability dG unfold.
Give bare numbers, in kcal/mol.

seq-string	folding stability dG unfold / kcal/mol
SAGGMKIGVLLPKSIPPEKAEEFLKKLNPDLEVEYRPVEPGSLKDIPPEIEVIVLPADDDFALALVKPSAGG [r13_649_TrMRF]	0.00463
SAGGSAGGSAGFKLPPGQEVVFQVSIKLPDGPTQTLEDLENMPPENIDFLEIEISWVPVDSAGGSAGGSAGG [r11_899_TrROS]	1.57

# batch: return folding stability dG unfold for each of the 3 sequences below
1. SAGGSAGGIWIPADEFKGQPIKVRIKHNGNERPIEEVKIKSHPDGFVFIEFPPELPENMKIEIESAGGSAGG [r6_630_TrROS]
2. SAGGSMPTLKPDEILTLSSTTEPLPSGGLRGRTVTLKKIPGTGKFVTITKYSYQPPDGPITSATEILLSAGG [r13_263_JUSTAS]
3. SAGGAVEITDISSKTVTEPVTFENGTVVPQERTAGTVTTTENGTPVATVPFTSEEELEEAIARALAESAGGS [r8_21_JUSTAS]

-0.0114
0.238
0.869

# batch: return folding stability dG unfold for each of the 2 sequences below
1. SAGGSAGGSMRIKTIKVIPQDDGMYSINITFPGVEREIPIPPQMPPDQITEIEIPIYFDGEPPSAGGSAGGS [r12_673_TrROS]
2. SAGGSAGGSAGGDPLPVTFTIPLEDDTTAKAVLSGDLVEVTIPNGKKYVLIPNPAVLGSSAGGSAGGSAGGS [r10_1176_TrMRF]

1. 0.212
2. -0.216

----------
For each of the sequences below, state its folding stability dG unfold.
Assay: folding stability dG unfold from chymotrypsin proteolysis; higher = more stable
One number for each entry, in kcal/mol.

Answered examples (2):
seq-string	quantity-kind	measured-value
SAGGTIFIPWEEAEEFIENAFENGEDIEIEFFLDDGWWYKFTITGPDIDLRVVEVVPMPPPPEDPGKKSAGG [r13_839_TrROS]	folding stability dG unfold	2.82
SAGGSAGGSGTSTKINILLPVKPGETVKLKVEVNLNSKKVLFYVDVKKNPVGNYLSATFTVTGSAGGSAGGS [r12_136_TrMRF]	folding stability dG unfold	4.42

# batch: return folding stability dG unfold for each of the 5 sequences below
1. SAGGKKKKVKKIKVKVKIKLKNGEEVTITEAYVLPDGTVIIKVEVTKPDGSKETKTFTIPLKDIEIESAGGS [r16_498_TrROS_Hall]
2. SMFTLVLPDGSVIPVIKGDSTTTVYDPRTGRTLPIPSSTVEENSIEEIVERILAELEKLGVPAQPVEILESA [r9_1211_JUSTAS]
3. SAGGSAGGSAGMKLTITVTFPDGTTPTFEVPPNSGDPAEVAAAIRAAHPDVVTITITPELSAGGSAGGSAGG [r11_311_JUSTAS]
4. SAGGMKLTPEELKGKTIRIRIKVNGKEYEIEAKVVEVDGELYIEVKIINKETKEEKTITIPLDDVEIVSAGG [r13_289_TrROS_Hall]
5. SAGGSAGGSAGGMALIKLPNGEVQPVKIKAIDPDGNILVEPENSEWQTFSFDGLEIIPLPSAGGSAGGSAGG [r7_823_TrMRF]

1: 3.7; 2: 1.72; 3: 0.27; 4: 2.1; 5: 0.955

----------
Test: folding stability dG unfold from trypsin proteolysis; higher = more stable
For each of the sequences below, state its folding stability dG unfold.
Give bare numbers, in kcal/mol.

Answered examples (6):
seq-string	folding stability dG unfold / kcal/mol
SAGLKEIAKKLGLSEEKIKIKEIKKKKKVVYDKKTKKKYEKEEIVIKIEIVDPKTKKKYEIEIPLEEIKSAG [r5_517_TrROS_Hall]	2.28
SAGGSAGGEKTTVLVRVELYLEDTEVVELPDFVFTDLTEEQVLEEVRKLGLPDNVKVEIIPLPASAGGSAGG [r6_88_TrMRF]	2.53
SAGGSAGGSEYRIELELFRTPEGGLVVPVRIYPPDGGRFEGPASLEELVERFGFSFPPLLELLSAGGSAGGS [r20_235_TrMRF]	1.58
SAWKIWIEFTPGDPGDTYQIRIDPNSPNLEALLKELAQMFKYEVKDAEVEYNPNGSVWVEFKVDELKPPSAG [r14_655_TrROS]	1.77
SAGGSAGGSAGGYLEAPIVIKIEFQIYDPDDGDPIATYEHTIMIPIEIELPPPPDPDNDSAGGSAGGSAGGS [r10_50_TrROS]	1.97
SAGGSAGGSAGGSDYIMFRIPAPPGEKIEIPIPNGWEVEINPQPHNGRWYFMIKIPEDASAGGSAGGSAGGS [r4_360_TrROS]	1.05

Could you now look at the following sequence, please?
Notebook: PDNEPPQWYRVWIPIDPEDGKIEVKPGGSTMTIDLPDGRPIEFYVPQGMSPSDIKNWAKGIAKELAEELKNS [r1_25_TrROS] , folding stability dG unfold read as 1.54

----------
Assay: folding stability dG unfold from chymotrypsin proteolysis; higher = more stable
Label YES for high-side folding stability dG unfold (at or above 1 kcal/mol) and NO for low-side folding stability dG unfold (below it).

Here's what some known entries look like.
seq-string	category-label
SAGGSAGGSAGGGEYAKIKIKNPINPKYKEIEIEIPSNKKNVIINATGSGNATITEIKLESAGGSAGGSAGG [r7_687_TrMRF]	NO
SGPAEGFEAELVEEYTLPETERVFVYRVTHPDGTEYVLVVVRNPDGTWEPVFVYRPDDPDALREALELLGSA [r9_1069_TrMRF]	YES
SAGGSAGPDPKNKKIKVKVETFYLEDFGLKVEKIYIEGTGKPLLVFYFPDGSKLIINEDGTVKLIESAGGSA [r15_617_TrMRF]	YES
SIKLSNGETIEYEPSPNKTYTIKHPDGRVVKILKVEREKDKYTVEIQFDDGSTKTIEIPPDKPEIIEKELLS [r1_66_JUSTAS]	NO
SAGGSAGGSAKKVKIEEKDGELTITVEPGEKVLIVYPDGTVEEVEVKEGDTITLPPGAKVLPSAGGSAGGSA [r18_452_TrROS_Hall]	YES

Evaluate STLLEEAKAQAEAYLKAAGLELAPGDVVTLTVPYPGPLTLEITVHPGEKKLEITATDASTPTTHTLTFDESA [r9_426_JUSTAS] : folding stability dG unfold at minimum 1 kcal/mol?
YES

Evaluate SAGGSAGGMIVTTTFLPGNLKVVNVTTTYETTDPSGTTTSTTTTSTTIEYIPPVPVDINNPLLISAGGSAGG [r6_920_JUSTAS] : folding stability dG unfold at minimum 1 kcal/mol?
YES

Evaluate SAGGKIPPGMKLEIEDINIEFYNNGWIKITVKMTIWAPDGKTMTMTMTIVIPIRPPPPPPNDPENNESAGGS [r8_90_TrROS] : folding stability dG unfold at minimum 1 kcal/mol?
YES

Evaluate SAGGVIMIPADEILDMIEQNPDEPKTIFARPNNRMVMFTLKIDPDKPDNIEIDNVWRYDPNGKGEHLPSAGG [r13_481_TrROS] : folding stability dG unfold at minimum 1 kcal/mol?
NO

Evaluate SAGGSAGGSAGPVPKTITVTVSSPEEAEAAVKEIKPKYPNVKVERKKVGDKIVLTITVEESAGGSAGGSAGG [r17_319_JUSTAS] : folding stability dG unfold at minimum 1 kcal/mol?
YES

Evaluate SAGGYDFDPRGEFPFPNGVKVEVWEMTWPDGNPMTMIEIEATIPPPPKPPMSPEDAKENNKDMAKNNSAGGS [r16_8_TrROS] : folding stability dG unfold at minimum 1 kcal/mol?
NO

Evaluate SAGGSAGGSAGGTAEAVRKLAEEFSQQHGMPIKDVEVQRPPNKWKPVIRYPDNGKWIEISAGGSAGGSAGGS [r10_161_TrROS] : folding stability dG unfold at minimum 1 kcal/mol?
NO

Evaluate SMNIHIPILTRPDVDEETIEEEVEALAAELAEKLGLPEGVEVEIEPEPLPEDGVVYHVTLRVGDVEFKGESA [r9_776_TrMRF] : folding stability dG unfold at minimum 1 kcal/mol?
NO

Evaluate SAGEIAEYIAEYLAQEPGFQDVEVNIKITDIEPPPNGYMYHKIDIHVRVRNPDDGKPREVNFDITFPMPSAG [r5_176_TrROS] : folding stability dG unfold at minimum 1 kcal/mol?
YES

----------
Assay: folding stability dG unfold (combined trypsin and chymotrypsin); higher = more stable
Label 1 (yes) for high-side folding stability dG unfold (at or above 2 kcal/mol) and 0 (no) for low-side folding stability dG unfold (below it).

Here's what some known entries look like.
seq-string	category-label
SAGGSAGGSAGGMVKTTTQVSIDPNSDYRYTTTTTTVVDANGKPLATQTTLTVTKLAGTSSAGGSAGGSAGG [r7_616_JUSTAS]	0 (no)
SAGGMVFKTKDGYLVRIEVFNKETGEKTEILVPEENIEELLKALESKPGVTEVKVEIYKLKDGKPEKLSAGG [r13_914_TrROS_Hall]	0 (no)
SAGGSAGGSAMNVKFFKLSENELRIEYNEIEEFEDGSLSEEIKTEILKLNLPEDDKKVKELLSAGGSAGGSA [r18_215_JUSTAS]	0 (no)
SAGGSAGGSAMRAVVVAFPPDGPPRVFPTDDLAPDERRVTFDPETGELALIEVLPEDGDPASAGGSAGGSAG [r3_356_TrMRF]	0 (no)

Evaluate SAGGSAGGMEVVELTVDELRALLPPGAVLLVYNRKTRKLYEIPVEELEALLKPGDKVRVVVLPPSAGGSAGG [r6_893_TrROS_Hall] : folding stability dG unfold at minimum 2 kcal/mol?
1 (yes)

Evaluate SGKDTLILELVLEVDSEEQAQAIRDIFEALGYKVEVRVFPLPDGLIVFVRVEVPVPPPPPSLEDPELLAKSA [r9_863_TrMRF] : folding stability dG unfold at minimum 2 kcal/mol?
1 (yes)

Evaluate SAGGSAGGSAEVEIEFVSYDPSTGRLVRKRVKLKLLPDPKGGPVEVVEVEVDPGGPVPAGASAGGSAGGSAG [r3_397_TrMRF] : folding stability dG unfold at minimum 2 kcal/mol?
1 (yes)

Evaluate SAGGSAGGSAGGPYWRVKIEWMDPNGKKKEHTFTFPPGWPLEEIAEELKPNGYKIEVEPLSAGGSAGGSAGG [r7_226_TrROS] : folding stability dG unfold at minimum 2 kcal/mol?
0 (no)

Evaluate SAGGSAEPRPVVVVFEGTEEEVEELVQKVRDEGFAIDFKVEPLPDPRYYRATVIVRDPDGSWTAKLSAGGSA [r15_177_TrMRF] : folding stability dG unfold at minimum 2 kcal/mol?
1 (yes)

Evaluate SAGGSAGGSAGPKSIPLDNATVTEFDSPNGDKVFIFSHPNKKKRLAILKDGKLVKEIPIESAGGSAGGSAGG [r11_1038_TrMRF] : folding stability dG unfold at minimum 2 kcal/mol?
0 (no)

Evaluate SAGGMYVEVVIDNPDPDISPEELAEEVARELAPDPFEIKPVKIEPELIGGIPKVTILFEVDDPEAVEESAGG [r13_979_TrMRF] : folding stability dG unfold at minimum 2 kcal/mol?
0 (no)

Evaluate SAGPKMKPIPFEFRNPDNGHKVKISVYYNPNGKRKIMITNPGDGRIYTFKINPGGIEIEKEIPLDDIKFSAG [r5_619_TrROS] : folding stability dG unfold at minimum 2 kcal/mol?
0 (no)

Evaluate SAGGSAGGDTLTIVVEGMSAEELAALLKELFPDAEVTVTEVGEPRLVTVTVTVKVETEFELPEESAGGSAGG [r6_607_TrROS_Hall] : folding stability dG unfold at minimum 2 kcal/mol?
1 (yes)

Evaluate SAGMVEVTVTIIPKKVKDKWVNEAVVSITVPGGPTSTITMPFGSKEEAIKYLKEKGLEVSEENVSVEIESAG [r5_233_JUSTAS] : folding stability dG unfold at minimum 2 kcal/mol?
1 (yes)
